- System: 409B2 hiPSC (iCRISPR Cas9, FRMD7 editing)
- procedure-summary: HDR (precise edit) frequency relative to solvent control (fold (ratio to mock)); higher = more homology-directed repair outcomes
- experimental-context: 5 nM
Structures can show the parent of a compound that is named as a salt.
# if value of HDR reaches 0.9, tag true (1); if it stays below, tag false (0)

compound	assigned-label
CC[C@@]1(O)C(=O)OCc2c1cc1n(c2=O)Cc2cc3c(CN(C)C)c(O)ccc3nc2-1 [Topotecan] (in DMSO)	true (1)
Cc1ccc(C(=O)N(CCCN)[C@@H](c2nc3cc(Cl)ccc3c(=O)n2Cc2ccccc2)C(C)C)cc1 (in DMSO)	true (1)
CC[C@]1(O)C[C@@H]2CN(CCc3c([nH]c4ccccc34)[C@@](C(=O)OC)(c3cc4c(cc3OC)N(C)[C@H]3[C@@](O)(C(=O)OC)[C@H](OC(C)=O)[C@]5(CC)C=CCN6CC[C@]43[C@@H]65)C2)C1 [vinblastine] (in DMSO)	false (0)
CC[C@]1(O)C[C@@H]2CN(CCc3c([nH]c4ccccc34)[C@@](C(=O)OC)(c3cc4c(cc3OC)N(C)[C@H]3[C@@](O)(C(=O)OC)[C@H](OC(C)=O)[C@]5(CC)C=CCN6CC[C@]43[C@@H]65)C2)C1 [Vinblastine sulfate] (in DMSO)	false (0)
